B1: CPEB3 Ribozyme (parent)
chain: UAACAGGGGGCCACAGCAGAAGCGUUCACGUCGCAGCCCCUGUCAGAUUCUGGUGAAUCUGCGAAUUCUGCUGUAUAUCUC

# Variants of: B1
# EXPERIMENT DESCRIPTION: self-cleavage, relative activity (ratio to wild type); higher = more cleavage; in vitro, sequencing
EXPERIMENTAL ENDPOINT: self-cleavage
Enter a number only.

G53C U60A    0.56
G8C U26C    0.08
G10A A20G    0.3

Report measured self-cleavage; entry is U48C U58A
0.23

Tell us which self-cleavage value is on record for A3C U41G
0.56

Could you please provide reported self-cleavage for U31G A35G ? Thanks!
1.1
